Hey, just so you know, these numbers are from ChEMBL document CHEMBL2203129.

# Assay Text: Inhibition of KIX domain of CBP interaction with KID domain of CREB after 20-24 hrs by Renilla luciferase complementation assay
Readout Name: IC50

Q: Query: IC50; subject: COc1ccc(NC(=O)c2cc3ccccc3cc2O)cc1
A: > 50 µM

Q: Can you check O=C(Nc1ccccn1)c1cc2ccccc2cc1O next?
A: 1.69 µM

Q: Thanks! And O=C(Nc1ccc(C(F)(F)F)cc1)c1cc2ccccc2cc1O ?
A: > 50 µM

Q: Queued: O=C(Nc1cccc(Cl)c1)c1cc2ccccc2cc1O
A: > 50 µM
